- Test system: NCI-H23 lung
- Measurement protocol: NCI-60 one-dose screen, 48 h (100 = growth as untreated, 0 = no growth, -100 = all killed)
- Condition details: 10 µM unless noted
This is part of a sample that, as a whole, favours compounds with a hit. Of some 83,000 tested, about 20% had one in any assay.
Entries and their growth

Compound	growth / %
C=CN(C)S(C)(=O)=O	32.2
CC(=O)CC(=O)OC/C=C(/C)CCC=C(C)C	103
CC(=O)N1N=C(c2ccc(Cl)cc2)CC1c1cn(-c2ccccc2)nc1-c1ccc([N+](=O)[O-])cc1 (stereo not given)	101
O=C(Nc1ccc(-n2cc(-c3ccncc3)c(-c3ccc(Cl)c(O)c3)n2)cc1)c1cc(Cl)cc(Cl)c1	60.3
COc1cc(CCNc2cnc3cc(N)cc(N)c3n2)cc(OC)c1	107

Source of measurements: PubChem BioAssay (NCI)
